Tested on: HepG2
Assay Remarks: cytotoxicity call (relative viability < 0.9)
Measurement Conditions: 10 µM
In all, about 39,000 compounds went through this assay and about 3,300 (8.5%) were called active. For the sample, actives were picked, then their nearest neighbours and some compounds at random.
Readout Name: cytotoxicity call

See these solved cases before continuing.
{"columns": ["Compound Structure String", "cytotoxicity call"],
 "data": [
  ["Cc1cc(C)c2[nH]c3ccccc3c2n1", "active"],
  ["Cc1c[nH]c2ccccc12", "inactive"],
  ["C[C@H]1CN([C@@H](C)CO)C(=O)c2cc(NS(C)(=O)=O)ccc2O[C@@H]1CN(C)S(=O)(=O)c1ccccc1", "inactive"],
  ["C[C@H](CO)N1C[C@H](C)[C@H](CN(C)Cc2ccccc2)Oc2ccc(NC(=O)Nc3cccc4ccccc34)cc2CC1=O", "active"],
  ["O=C1c2ccc3c4c(ccc(c24)C(=O)N1CCCCO)C(=O)N(CCCCO)C3=O", "active"],
  ["O=C(C[C@@H]1C[C@@H]2c3cc(NS(=O)(=O)c4ccc(F)cc4)ccc3O[C@@H]2[C@H](CO)O1)NCCc1ccccc1", "inactive"],
  ["C[C@@H]1CN([C@@H](C)CO)C(=O)Cc2cc(NC(=O)C3CCCCC3)ccc2O[C@H]1CN(C)Cc1ccc(Cl)c(Cl)c1", "inactive"]
]}

Note: attention shifts to another entry.
Request: Please give measured cytotoxicity call of the following entry: `C[C@@H]1CN([C@H](C)CO)C(=O)c2cc(C#CCN(C)C)cnc2O[C@@H]1CN(C)C(=O)Nc1cccc(F)c1`
Result: inactive
